Source of measurements: ChEMBL document CHEMBL1142699

test system: Nociceptin receptor (Cavia porcellus) (UniProt P47748)
Sequence (P47748 whole entry): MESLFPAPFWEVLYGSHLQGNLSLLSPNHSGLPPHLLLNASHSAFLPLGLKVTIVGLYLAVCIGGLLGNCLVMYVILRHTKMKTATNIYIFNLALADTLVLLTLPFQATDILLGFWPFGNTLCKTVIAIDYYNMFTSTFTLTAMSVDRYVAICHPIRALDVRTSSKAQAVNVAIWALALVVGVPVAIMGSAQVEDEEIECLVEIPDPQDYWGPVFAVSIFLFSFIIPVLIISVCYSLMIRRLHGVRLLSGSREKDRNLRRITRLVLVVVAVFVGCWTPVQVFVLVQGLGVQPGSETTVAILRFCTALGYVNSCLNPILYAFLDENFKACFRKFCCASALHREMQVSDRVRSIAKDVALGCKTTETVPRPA
assay summary: Antagonistic potency against N/OFQ in electrically evoked contractions of guinea pig ileum at 1 uM
Format: functional, tissue-based
quantity kind: pKb
Answers are plain numbers.

query: Using known records, supply pKb for `C[C@H](NC(=O)CNC(=O)[C@@H](NC(=O)[C@H](Cc1ccccc1)NC(=O)CNC(=O)CNC(=O)CNCc1ccccc1)[C@@H](C)O)C(=O)N[C@@H](CCCN=C(N)N)C(=O)N[C@@H](CCCCN)C(=O)N[C@@H](CO)C(=O)N[C@@H](C)C(=O)N[C@@H](CCCN=C(N)N)C(=O)N[C@@H](CCCCN)C(=O)N[C@@H](CCCN=C(N)N)C(=O)N[C@@H](CCCCN)C(=O)N[C@@H](CC(N)=O)C(=O)N[C@@H](CCC(=O)N(N)N)C(=O)NN`
result: 6.79

* * *

test system: Nociceptin receptor (Cavia porcellus) (UniProt P47748)
assay summary: Antagonistic potency against N/OFQ in electrically evoked contractions of guinea pig ileum at 1 uM
Format: functional, tissue-based
Numbered stars: 1 amine (or outer) side, 2 acyl side, 3 side chain; on linkers, the order of the positions; unused ones are H or OH. Square brackets hold non-standard residues; d marks the D form. Peptide text beside a SMILES is read from it. * marks the point of attachment. X1 = N[C@@H](Cc1ccccc1)CN(CC(=O)[*:2])[*:1]; Phe(4-F) = N[C@@H](Cc1ccc(F)cc1)C(=O)O; N(NH2)2 = NN(N)*; NHNH2 = NN*
quantity kind: pKb
Numbers only.

Field: example entries. Status: answers known.
molecule	pKb
CC(C)C[C@H](NC(=O)[C@H](CCCCN)NC(=O)[C@H](CCCN=C(N)N)NC(=O)[C@H](C)NC(=O)[C@H](CO)NC(=O)[C@H](CCCCN)NC(=O)[C@H](CCCN=C(N)N)NC(=O)[C@H](C)NC(=O)CNC(=O)[C@@H](NC(=O)[C@H](Cc1ccc(F)cc1)NC(=O)CNC(=O)CNC[C@@H](N)Cc1ccccc1)[C@@H](C)O)C(=O)N[C@@H](C)C(=O)N[C@@H](CC(N)=O)C(=O)N[C@@H](CCC(N)=O)C(N)=O (H-[X1]G[Phe(4-F)]TGARKSARKLANQ-NH2)	8.32
CC(C)C[C@H](NC(=O)[C@H](CCCCN)NC(=O)[C@H](CCCN=C(N)N)NC(=O)[C@H](C)NC(=O)[C@H](CO)NC(=O)[C@H](CCCCN)NC(=O)[C@H](CCCN=C(N)N)NC(=O)[C@H](C)NC(=O)CNC(=O)[C@@H](NC(=O)[C@H](Cc1ccccc1)NC(=O)CNC(=O)CNC[C@@H](N)Cc1ccccc1)[C@@H](C)O)C(=O)N[C@@H](C)C(=O)N[C@@H](CC(N)=O)C(=O)N[C@@H](CCC(N)=O)C(N)=O (H-[X1]GFTGARKSARKLANQ-NH2)	6.65
CC(C)C[C@H](NC(=O)[C@H](CCCCN)NC(=O)[C@H](CCCN=C(N)N)NC(=O)[C@H](C)NC(=O)[C@H](CO)NC(=O)[C@H](CCCCN)NC(=O)[C@H](CCCN=C(N)N)NC(=O)[C@H](C)NC(=O)CNC(=O)[C@@H](NC(=O)[C@H](Cc1ccc(F)cc1)NC(=O)CNC(=O)CNC(=O)CNCc1ccccc1)[C@@H](C)O)C(=O)N[C@@H](C)C(=O)N[C@@H](CC(N)=O)C(=O)N[C@@H](CCC(N)=O)C(N)=O	7.16

// moving on: another record for pKb
query: Using known records, supply pKb for C[C@H](NC(=O)CNC(=O)[C@@H](NC(=O)[C@H](Cc1ccccc1)NC(=O)CNC(=O)CNC[C@@H](N)Cc1ccccc1)[C@@H](C)O)C(=O)N[C@@H](CCCN=C(N)N)C(=O)N[C@@H](CCCCN)C(=O)N[C@@H](CO)C(=O)N[C@@H](C)C(=O)N[C@@H](CCCN=C(N)N)C(=O)N[C@@H](CCCCN)C(=O)N[C@@H](CCCN=C(N)N)C(=O)N[C@@H](CCCCN)C(=O)N[C@@H](CC(N)=O)C(=O)N[C@@H](CCC(=O)N(N)N)C(=O)NN (H-[X1]GFTGARKSARKRKNE(N(NH2)2)-NHNH2)
result: 7.47

* * *

test system: Nociceptin receptor (Mus musculus)
assay summary: Maximal inhibition of electrically evoked contraction of mouse vas deferens; Effect evident only in some tissues
Assay type: functional
experimental parameters: filed as agonist
Numbered stars: 1 amine (or outer) side, 2 acyl side, 3 side chain; on linkers, the order of the positions; unused ones are H or OH. Square brackets hold non-standard residues; d marks the D form. Peptide text beside a SMILES is read from it. * marks the point of attachment. X1 = N[C@@H](Cc1ccccc1)CN(CC(=O)[*:2])[*:1]; N(NH2)2 = NN(N)*; NHNH2 = NN*

compound	test system	Emax
CC(C)C[C@H](NC(=O)[C@H](CCCCN)NC(=O)[C@H](CCCN=C(N)N)NC(=O)[C@H](C)NC(=O)[C@H](CO)NC(=O)[C@H](CCCCN)NC(=O)[C@H](CCCN=C(N)N)NC(=O)[C@H](C)NC(=O)CNC(=O)[C@@H](NC(=O)[C@H](Cc1ccccc1)NC(=O)CNC(=O)CNC[C@@H](N)Cc1ccccc1)[C@@H](C)O)C(=O)N[C@@H](C)C(=O)N[C@@H](CC(N)=O)C(=O)N[C@@H](CCC(N)=O)C(N)=O (H-[X1]GFTGARKSARKLANQ-NH2)	Nociceptin receptor (Mus musculus)	Agonist
C[C@H](NC(=O)CNC(=O)[C@@H](NC(=O)[C@H](Cc1ccccc1)NC(=O)CNC(=O)CNC[C@@H](N)Cc1ccccc1)[C@@H](C)O)C(=O)N[C@@H](CCCN=C(N)N)C(=O)N[C@@H](CCCCN)C(=O)N[C@@H](CO)C(=O)N[C@@H](C)C(=O)N[C@@H](CCCN=C(N)N)C(=O)N[C@@H](CCCCN)C(=O)N[C@@H](CCCN=C(N)N)C(=O)N[C@@H](CCCCN)C(=O)N[C@@H](CC(N)=O)C(=O)N[C@@H](CCC(=O)N(N)N)C(=O)NN (H-[X1]GFTGARKSARKRKNE(N(NH2)2)-NHNH2)	Nociceptin receptor (Mus musculus)	Agonist

* * *

test system: Nociceptin receptor (Cavia porcellus)
assay summary: Inhibition of electrically evoked contraction of guinea pig ileum; Effect evident only in some tissues
Format: functional, tissue-based
experimental parameters: filed as agonist
Numbered stars: 1 amine (or outer) side, 2 acyl side, 3 side chain; on linkers, the order of the positions; unused ones are H or OH. Square brackets hold non-standard residues; d marks the D form. Peptide text beside a SMILES is read from it. * marks the point of attachment. X1 = N[C@@H](Cc1ccccc1)CN(CC(=O)[*:2])[*:1]; Phe(4-F) = N[C@@H](Cc1ccc(F)cc1)C(=O)O; N(NH2)2 = NN(N)*; NHNH2 = NN*

compound	Log EC50
CC(C)C[C@H](NC(=O)[C@H](CCCCN)NC(=O)[C@H](CCCN=C(N)N)NC(=O)[C@H](C)NC(=O)[C@H](CO)NC(=O)[C@H](CCCCN)NC(=O)[C@H](CCCN=C(N)N)NC(=O)[C@H](C)NC(=O)CNC(=O)[C@@H](NC(=O)[C@H](Cc1ccc(F)cc1)NC(=O)CNC(=O)CNC[C@@H](N)Cc1ccccc1)[C@@H](C)O)C(=O)N[C@@H](C)C(=O)N[C@@H](CC(N)=O)C(=O)N[C@@H](CCC(N)=O)C(N)=O (H-[X1]G[Phe(4-F)]TGARKSARKLANQ-NH2)	Agonist
C[C@H](NC(=O)CNC(=O)[C@@H](NC(=O)[C@H](Cc1ccccc1)NC(=O)CNC(=O)CNC[C@@H](N)Cc1ccccc1)[C@@H](C)O)C(=O)N[C@@H](CCCN=C(N)N)C(=O)N[C@@H](CCCCN)C(=O)N[C@@H](CO)C(=O)N[C@@H](C)C(=O)N[C@@H](CCCN=C(N)N)C(=O)N[C@@H](CCCCN)C(=O)N[C@@H](CCCN=C(N)N)C(=O)N[C@@H](CCCCN)C(=O)N[C@@H](CC(N)=O)C(=O)N[C@@H](CCC(=O)N(N)N)C(=O)NN (H-[X1]GFTGARKSARKRKNE(N(NH2)2)-NHNH2)	Agonist
C[C@H](NC(=O)CNC(=O)[C@@H](NC(=O)[C@H](Cc1ccc(F)cc1)NC(=O)CNC(=O)CNC[C@@H](N)Cc1ccccc1)[C@@H](C)O)C(=O)N[C@@H](CCCN=C(N)N)C(=O)N[C@@H](CCCCN)C(=O)N[C@@H](CO)C(=O)N[C@@H](C)C(=O)N[C@@H](CCCN=C(N)N)C(=O)N[C@@H](CCCCN)C(=O)N[C@@H](CCCN=C(N)N)C(=O)N[C@@H](CCCCN)C(=O)N[C@@H](CC(N)=O)C(=O)N[C@@H](CCC(=O)N(N)N)C(=O)NN (H-[X1]G[Phe(4-F)]TGARKSARKRKNE(N(NH2)2)-NHNH2)	Agonist
